target_or_test_system: TSPO (Homo sapiens, UniProt P30536)
Sequence (P30536 whole entry): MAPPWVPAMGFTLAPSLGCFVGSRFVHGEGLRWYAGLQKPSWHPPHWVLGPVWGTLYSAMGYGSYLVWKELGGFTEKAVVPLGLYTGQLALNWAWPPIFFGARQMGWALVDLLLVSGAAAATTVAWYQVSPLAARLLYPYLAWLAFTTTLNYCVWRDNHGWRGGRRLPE
experiment: In vitro TSPO binding assay, competition with [3H]PK11195 in membrane of human leukocytes
Below is a list of entries, each paired with its recorded log10 Ki value.
Hello, just confirming the data are log10 of Ki with units of nM.

Challenge: Item CCc1cc(CC)n2nc(-c3ccc(F)cc3)c(CC(=O)N(CC)Cc3cc(OC)ccc3OC)c2n1 [GMA 17] has what recorded log10 Ki?
Response given: -0.27

Challenge: Item C#CCN(CC#C)C(=O)Cc1c(-c2ccc(F)cc2)nn2c(CC)cc(CC)nc12 [GMA 13] has what recorded log10 Ki?
Response given: -0.05

Challenge: Item CCN(CC)C(=O)Cc1c(-c2ccc(OCCF)cc2)nn2c(C)cc(C)nc12 [DPA-714, reference compound] has what recorded log10 Ki?
Response given: 0.56

Challenge: Item CCc1cc(CC)n2nc(-c3ccc(F)cc3)c(CC(=O)N(CC)C(C)C)c2n1 [GMA 9] has what recorded log10 Ki?
Response given: 1.12

Challenge: Item CCc1cc(CC)n2nc(-c3ccc(F)cc3)c(CC(=O)N(CC)Cc3ccccc3OC)c2n1 [GMA 16] has what recorded log10 Ki?
Response given: -0.31

Challenge: Item CCc1cc(CC)n2nc(-c3ccc(F)cc3)c(CC(=O)N(C)CC)c2n1 [GMA 7] has what recorded log10 Ki?
Response given: 1.23

Challenge: Item CCc1cc(CC)n2nc(-c3ccc(F)cc3)c(CC(=O)N(CCOC)CCOC)c2n1 [GMA 12] has what recorded log10 Ki?
Response given: 1.40

Challenge: Item CCCN(CCC)C(=O)Cc1c(-c2ccc(F)cc2)nn2c(CC)cc(CC)nc12 [GMA 10] has what recorded log10 Ki?
Response given: -0.74

----------
experiment: In vitro cytotoxicity (MTT assay) on L-929 cells
Type: cell-based, mouse
details: mouse, L-929 mouse fibroblast cells; 50 μg/mL, L-929, 24 h, MTT; read-out: Cell viability
Threshold-based label: viability at 24 h, 50 μg/mL under 20% gives MET, viability at 24 h, 50 μg/mL not under 20% gives NOT MET.

Would you please look over these solved cases?
compound | group_label
CCN(CC)C(=O)Cc1c(-c2ccc(OCCF)cc2)nn2c(C)cc(C)nc12 [DPA-714, reference compound] | MET
CCc1cc(CC)n2nc(-c3ccc(F)cc3)c(CC(=O)N(CC)CCOC)c2n1 [GMA 11] | NOT MET
CCC(C)N(C)C(=O)c1cc2ccccc2c(-c2ccccc2Cl)n1 (centres unmarked) [PK11195, reference compound] | NOT MET

Field: next compound
Challenge: Field: below-cutoff. Rule: recorded viability at 24 h, 50 μg/mL strictly less than 20%. Subject: CCc1cc(CC)n2nc(-c3ccc(F)cc3)c(CC(=O)N(CC)c3ccccc3)c2n1 [GMA 15]
Response given: MET

----------
experiment: In vitro cytotoxicity (MTT assay) on L-929 cells
Format: cell-based, mouse
details: mouse, L-929 mouse fibroblast cells; 25 μg/mL, L-929, 24 h, MTT; read-out: Cell viability
readout_label: viability at 24 h, 25 μg/mL (%)
Could you give me the number in %? Just the number is fine.

Recorded viability at 24 h, 25 μg/mL, per entry:
compound | reported
CCc1cc(CC)n2nc(-c3ccc(F)cc3)c(CC(=O)N(CC)CCOC)c2n1 | 33.5
CCc1cc(CC)n2nc(-c3ccc(F)cc3)c(CC(=O)N(CC)c3ccccc3)c2n1 | 9.6
CCCN(CCC)C(=O)Cc1c(-c2ccc(F)cc2)nn2c(CC)cc(CC)nc12 | 24.6
CCC(C)N(C)C(=O)c1cc2ccccc2c(-c2ccccc2Cl)n1 (centres unmarked) [PK11195, reference compound] | 38.3

Now for another entry.
Challenge: Item CCN(CC)C(=O)Cc1c(-c2ccc(OCCF)cc2)nn2c(C)cc(C)nc12 [DPA-714, reference compound] has what recorded viability at 24 h, 25 μg/mL?
Response given: 32.1
